Item-by-item account of Kd
# system_under_test: CCL4L1_HUMAN
# method_summary: BLI
# output: bare number, implied unit nM

As a guide, the following entries are already answered.
# binder, Kd [nM]
measured = [
    ("P974_AMBCA (other) ENTQQEEQDYDYGTDTCPFPVLANKTNKAKFVGCHQKCNGGDQKLTDGTACYVVERKVWDRMTPMLWYECPLGECKNGVCEDLRKKEDCRKGNGEEK", 23.2),
    ("P1180_AMBTR (other) EEPKDGYDYTEGCPFVVLGNGTHAKPAGCSHLCNGAPETLDDNMECYNVTEEVAKRMTPDIPYTCWLGWCSKGECKRDNRTEVCYRGSERE", 19.5),
    ("P1181_AMBMA (other) EEREDDNDYGGGCPFVVLGNGTHAKPAGCSHLCNGAPETLDNIECYNVTEEVAKRMTPDIPYTCWLGWCSKGECKRDNRTEVCYRGSERE", 13.5),
]

Name the recorded Kd of the item P467_RHIPU (other) AEKSLDSDSSGEDYELWTQGCPFLVAENRTGFGTTVSCQHNCNGAIEKVPEGEPCYTIGEDGLGRMKLNLPYNCSLGECSGGVCVPNGRSDVCFKRTWEENNKAMA in your answer.
4.72

Source of measurements: patent US20220175942A1
